Ref: ChEMBL document CHEMBL4330128

Tested on: Mus musculus
Test: Antiallodynic activity in carrageenan-induced Kunming mouse model of mechanical hyperalgesia administered as intrathecal injection after 10 to 90 mins by Von Frey filament assay
Type: functional
Where a SMILES comes first, the peptide text is derived from it. Side-chain parts run from the residue outwards. The star is where a group is joined. Adamantane1carbonyl = O=C(C12CC3CC(CC(C3)C1)C2)*
ENDPOINT: ED50 (nmol)
Unit nmol implied. Number only.

Determine its reported ED50: `N=C(N)NCCC[C@H](NC(=O)C12CC3CC(CC(C3)C1)C2)C(=O)N[C@@H](Cc1ccccc1)C(=O)N[C@@H](CCCCNC(=O)[C@H](Cc1ccccc1)NC(=O)[C@H](Cc1ccccc1)NC(=O)[C@@H]1CCCN1C(=O)[C@@H](N)Cc1ccc(O)cc1)C(N)=O`
8.16

Determine its reported ED50: N=C(N)NCCC[C@H](NC(=O)C12CC3CC(CC(C3)C1)C2)C(=O)N[C@@H](Cc1ccccc1)C(=O)NCCCC[C@H](NC(=O)[C@H](Cc1ccccc1)NC(=O)[C@H](Cc1ccccc1)NC(=O)[C@@H]1CCCN1C(=O)[C@@H](N)Cc1ccc(O)cc1)C(N)=O (H-YPFFK([Phe-Arg-Adamantane1carbonyl])-NH2)
9.25

Determine its reported ED50: `CC(C)C[C@H](NC(=O)[C@H](Cc1ccccc1)NC(=O)[C@H](C)N(C)C(=O)[C@@H]1CCCN1C(=O)[C@H](N)CC(N)=O)C(=O)N[C@@H](Cc1ccccc1)C(=O)N[C@@H](CCC(N)=O)C(=O)N1CCC[C@H]1C(=O)N[C@@H](CCC(N)=O)C(=O)N[C@@H](CCCNC(=N)N)C(=O)N[C@@H](Cc1ccccc1)C(N)=O`
26.2

Determine its reported ED50: `CN1CC[C@]23c4c5ccc(O)c4O[C@H]2[C@@H](O)C=C[C@H]3[C@H]1C5`
0.44
